studyTarget: c-Src SH2;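 also: peptide library displayed on the E. coli surface as eCPX fusions, selected cells deep-sequenced, score is each peptide's frequency after selection divided by its frequency in the input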
assayExplanation: SH2 binding enrichment of the phosphorylated peptide, bacterial display (enrichment ratio); higher = better substrate or ligand; peptides without Tyr show the background
experimentalReadout: SH2 binding enrichment

Some sequences with known SH2 binding enrichment results, for comparison:
monomersequence="RQQEVYLLYKQ [RARRES1_Y159_D158V]" result=0.61
monomersequence="EFQKKYSDADI [CKAP5_Y1860_K1857Q_YF]" result=0.459
monomersequence="DAICYYRMENA [NPHS2_Y195]" result=0.641
monomersequence="QMVGMYASSYM [AVPR2_Y124]" result=1.23
monomersequence="FISVGYVDDTL [HLA-B_Y51_Q56L]" result=0.728
monomersequence="EEHIPYTHMNG [INSR_Y1361]" result=0.722
monomersequence="SLIDMYSEVLA [OPA1_Y268_D273A]" result=0.553
monomersequence="LAETSYVTVLE [MAGEA1_Y276_K278T]" result=1.25

Data request: Answer briefly: SH2 binding enrichment recorded on c-Src SH2 for QSSEGYGLGDR [KIAA1210_Y564]
Data returned: 0.419

Data request: Answer briefly: SH2 binding enrichment recorded on c-Src SH2 for KCCCIYEKPRS [PPP1R11_Y64_A69S]
Data returned: 0.602

Data request: Answer briefly: SH2 binding enrichment recorded on c-Src SH2 for GFKVRYATGSI [FGFR1_Y210_W213G_YF]
Data returned: 0.706

Data request: Answer briefly: SH2 binding enrichment recorded on c-Src SH2 for PTFEHYANSTQ [SLC12A3_Y70_YF]
Data returned: 1.09

* * *

Tested on: Fer (mouse)
assayExplanation: phosphorylation enrichment, bacterial display (enrichment ratio); higher = better substrate or ligand; peptides without Tyr show the background
# phosphorylation enrichment per entry
Output spec: single numeric token, no unit.

Data request: Please supply the value of reported phosphorylation enrichment for the item LKEIHYPPYTD [ALDH3B2_Y362]
Data returned: 0.584

Data request: Please supply the value of reported phosphorylation enrichment for the item KIEGIYARDET [RPL35A_Y34_V33I]
Data returned: 0.491

Data request: Please supply the value of reported phosphorylation enrichment for the item KFEDVYVRICL [B3GALNT1_Y269_G271R]
Data returned: 0.593

Data request: Please supply the value of reported phosphorylation enrichment for the item FTRNYYVQAVL [CYBA_Y88_R90Q]
Data returned: 0.512

Data request: Please supply the value of reported phosphorylation enrichment for the item SEKIVYGHLDD [ACO2_Y71]
Data returned: 0.505

Data request: Please supply the value of reported phosphorylation enrichment for the item RGFRQDAFDGK [HLA-A_Y140_YF]
Data returned: 0.487

Data request: Please supply the value of reported phosphorylation enrichment for the item DFKIIYIVPMR [SNRNP200_Y540_A542V]
Data returned: 0.487

* * *

studyTarget: MERTK (UniProt Q12866)
Sequence (Q12866 whole entry, looked up): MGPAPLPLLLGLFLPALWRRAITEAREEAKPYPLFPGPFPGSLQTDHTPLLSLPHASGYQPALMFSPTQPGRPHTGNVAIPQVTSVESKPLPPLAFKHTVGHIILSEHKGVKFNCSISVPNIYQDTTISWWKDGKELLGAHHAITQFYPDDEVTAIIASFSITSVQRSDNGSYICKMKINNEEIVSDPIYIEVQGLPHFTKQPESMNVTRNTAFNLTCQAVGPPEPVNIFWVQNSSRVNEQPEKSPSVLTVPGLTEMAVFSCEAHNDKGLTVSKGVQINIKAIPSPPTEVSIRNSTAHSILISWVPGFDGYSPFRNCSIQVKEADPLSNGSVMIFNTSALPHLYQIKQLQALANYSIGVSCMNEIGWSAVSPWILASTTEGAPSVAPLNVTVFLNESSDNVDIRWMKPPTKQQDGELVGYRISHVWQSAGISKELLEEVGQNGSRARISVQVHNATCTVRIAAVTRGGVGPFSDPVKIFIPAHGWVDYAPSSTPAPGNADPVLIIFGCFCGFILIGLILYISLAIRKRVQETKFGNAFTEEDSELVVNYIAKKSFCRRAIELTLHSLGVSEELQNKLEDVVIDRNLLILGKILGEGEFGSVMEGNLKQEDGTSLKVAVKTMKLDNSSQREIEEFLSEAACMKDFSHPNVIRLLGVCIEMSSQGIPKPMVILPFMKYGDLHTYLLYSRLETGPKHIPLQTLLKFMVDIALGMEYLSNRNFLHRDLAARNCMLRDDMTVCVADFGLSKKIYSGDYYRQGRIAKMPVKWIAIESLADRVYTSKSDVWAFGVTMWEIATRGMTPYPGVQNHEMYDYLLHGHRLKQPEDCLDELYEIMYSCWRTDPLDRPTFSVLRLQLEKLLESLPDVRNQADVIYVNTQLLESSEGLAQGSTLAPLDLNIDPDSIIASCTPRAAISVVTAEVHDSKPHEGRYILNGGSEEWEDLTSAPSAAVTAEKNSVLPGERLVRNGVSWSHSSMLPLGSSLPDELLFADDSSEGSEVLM
assayExplanation: phosphorylation enrichment, bacterial display (enrichment ratio); higher = better substrate or ligand; peptides without Tyr show the background
experimentalReadout: phosphorylation enrichment

monomersequence="VFSATYHPDHW [EFCAB12_Y544_P541S_YF]" result=0.492
monomersequence="RREWYYEVIIV [BACE1_Y260]" result=0.832

Data request: Please supply the value of reported phosphorylation enrichment for the item AVAFLYFKSIG [ADGRL4_Y301_V300L_YF]
Data returned: 0.478
